- Test system: Rattus norvegicus
- method: Minimum effective dose at which significant increase in uterine weight/body weight in rat was determined (in vivo); expressed as % increase relative to ovariectomized (OVX) controls
- Assay type: functional
So basically: is Increase under 30%? Then yes. Not under? Then no.

- Cc1ccc2c(C(=O)c3ccc(OCCN4CCCCC4)cc3)c(-c3ccc(O)cc3)sc2c1.Cl: yes

Task item: Given Cc1ccc(-c2sc3cc(O)ccc3c2C(=O)c2ccc(OCCN3CCCCC3)cc2)cc1.Cl , is recorded Increase strictly lower than 30%?
Reply: no

Task item: Bench note: check whether CC/C(=C(\c1ccccc1)c1ccc(OCCN(C)C)cc1)c1ccccc1 [TAMOXIFEN] shows Increase below 30%
Reply: no

Task item: Increase strictly < 30% for this compound? Cl.O=C(c1ccc(OCCN2CCCCC2)cc1)c1c(-c2ccc(Cl)cc2)sc2cc(O)ccc12
Reply: no

Task item: Please let me know if Cc1cc(-c2sc3cc(O)ccc3c2C(=O)c2ccc(OCCN3CCCCC3)cc2)cc(C)c1O shows Increase below 30%.
Reply: no
